Assay: DUSP6 inhibitors restoring Erk phosphorylation by chemical complementation, primary imaging in DUSP6-transfected HeLa (AID 609)
Settings: HeLa MKP-3 transfected, phospho-Erk imaging KS statistic; measured here: nuclear c-Myc green intensity z-score; at 10 µM; cells stimulated with TPA for 15 min
Note to self: class labels come from recorded z-score, ranges listed here: bucket A: < -0.9; bucket B: ≥ -0.9 and < 0.4; bucket C: ≥ 0.4

Worked cases, answers included:
c1ccc(SCc2nc3ccccc3[nH]2)nc1	bucket C
CCN(CC)CCN1C(=O)C(=O)/C(=C(/O)c2ccc(F)cc2)C1c1cccnc1 (stereo unspecified)	bucket B
O=C(Nc1ccccc1C(=O)NCCCn1ccnc1)c1ccccc1	bucket B
CCOC(=O)CSc1nc(N)c(C#N)c(-c2ccc(OC)cc2)c1C#N	bucket C
CNc1ccccc1-c1nc2ccccc2n(C)c1=O	bucket B

Classify this compound: CCn1cc(C(=O)NCc2ccccn2)c(=O)c2cc(F)c(N3CCN(C)CC3)cc21
bucket C

Classify this compound: COCCn1c(N)c(C(=O)NCC2CCCO2)c2nc3ccccc3nc21 (stereo unspecified)
bucket A

Classify this compound: CCOC(=O)CCC(=O)O[C@H]1[C@H](O[C@@H]2[C@@H](C)[C@H](O[C@H]3C[C@@](C)(OC)[C@@H](O)[C@H](C)O3)[C@@H](C)C(=O)O[C@H](CC)[C@@](C)(O)[C@H](O)[C@@H](C)C(=O)[C@H](C)C[C@@]2(C)O)O[C@H](C)C[C@@H]1N(C)C
bucket A

Classify this compound: CCOCc1nc(N)[nH]c(=O)c1Cc1ccc(OC(C)C)cc1
bucket B

Classify this compound: CCCCOc1ccc(C(=O)Nn2cnnc2)cc1
bucket A

Classify this compound: CCOC(=O)c1cc2c(=O)n3cccc(C)c3nc2n(C)c1=N
bucket A

----------
Assay: DUSP6 inhibitors restoring Erk phosphorylation by chemical complementation, primary imaging in DUSP6-transfected HeLa (AID 609)
Settings: HeLa MKP-3 transfected, phospho-Erk imaging KS statistic; measured here: nuclear c-Myc green intensity z-score; at 10 µM; cells stimulated with TPA for 15 min
Measurement Type: z-score
Give bare numbers.

Here are 10 compounds together with their reported answers.
CCOc1ccc(-c2nn3c(-c4ccc(OC)cc4)nnc3s2)cc1	-1.74
COc1ccc(OC(=O)c2cc3ccccc3o2)cc1	-0.13
N#Cc1c(N)sc(=S)c2c1CCCCC2	-0.421
Nc1ccc(S(=O)(=O)Nc2ncccn2)cc1	-1.89
Clc1ccc2[nH]c3c(NCCCN4CCOCC4)ncnc3c2c1	-0.352
COCc1cc(C)nc(N)c1C#N	-1.4
N#CC1=C(N)NC(SCc2ccc(F)cc2)=C(C#N)C12CCCCC2	-0.0167
CCCCCCSC1=C(C#N)C(c2ccccc2)CC(=O)N1 (stereo not drawn)	0.0915
c1ccc(N2CCN(c3nc(NCc4ccco4)c4ccccc4n3)CC2)cc1	-0.848
Cc1cc(NC(=O)CSc2nc(-c3cccnc3)ccc2C#N)no1	0.655

# batch size: 3; output z-score per entry
1. COc1ccc(C2CC(=O)C(C=NCCN3CCOCC3)=C(O)C2)cc1 (stereo not drawn)
2. OCCN(CCO)c1nc(N2CCCCC2)c2nc(N(CCO)CCO)nc(N3CCCCC3)c2n1
3. CC1(C)O[C@@H]2C[C@H]3[C@@H]4C[C@H](F)C5=CC(=O)CC[C@]5(C)[C@H]4[C@@H](O)C[C@]3(C)[C@]2(C(=O)CO)O1

0.663
0.0897
-0.0426
